Target: Monoglyceride lipase (Homo sapiens, UniProt Q99685)
Sequence (Q99685 whole entry): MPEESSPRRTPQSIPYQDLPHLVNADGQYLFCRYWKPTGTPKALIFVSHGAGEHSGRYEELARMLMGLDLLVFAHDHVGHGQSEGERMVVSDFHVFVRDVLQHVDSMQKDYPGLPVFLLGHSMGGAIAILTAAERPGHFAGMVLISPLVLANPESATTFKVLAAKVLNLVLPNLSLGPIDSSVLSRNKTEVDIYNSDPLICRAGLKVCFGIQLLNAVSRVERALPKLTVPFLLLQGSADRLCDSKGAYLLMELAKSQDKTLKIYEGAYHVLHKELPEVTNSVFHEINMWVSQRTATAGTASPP
Test: MAGL Inhibitory Activity Assay
REPORTED ENDPOINT: IC50 (nM)
Numbers only; they are read as nM.

Qu. Supply reported IC50 belonging to this compound: "O=C1CO[C@H]2CCN(C(=O)N3CC(OCc4cccc(OC(F)(F)F)c4)C3)C[C@H]2N1"
Ans. 45
